Assay: chemical genetic growth profiling, strain panel (AID 1159580);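 also: tested at 20 µM; growth read once vehicle control cultures reached saturation at 30 °C; 1 = growth at the plate median or of vehicle wells; lower values mean less growth of the strain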
Details: S. cerevisiae deletion strains, growth OD, locus YGR252W, strain gcn5, hits give low values
The whole screen tested about 5,500 compounds, of which about 2,000 (36%) were called active. Another 18% or so got no clear call; they are omitted. The list shows a part of the results.
assay.readout: normalized growth
Please reply with the value in numeric form only.

# example entries with known answers
• Clc1ccc(C(c2ccc(Cl)cc2)C(Cl)(Cl)Cl)cc1 = 0.916
• COc1ccc(C(CN(C)C)C2(O)CCCCC2)cc1 (centres undefined) = 0.973
• Oc1cc(O)c2c(c1)O[C@H](c1ccc(O)c(O)c1)[C@@H](O)C2 = 0.947

*Q* Indicate the recorded normalized growth value for this compound: `C[C@@H]1O[C@@H](O[C@H]2[C@H](Oc3cc(O)c4c(=O)cc(-c5ccc(O)cc5)oc4c3)O[C@H](CO)[C@@H](O)[C@@H]2O)[C@H](O)[C@H](O)[C@H]1O`
*A* 1.11

*Q* Indicate the recorded normalized growth value for this compound: `Cc1[nH]c2ccccc2c1CN(C)C`
*A* 0.908

*Q* Indicate the recorded normalized growth value for this compound: `CN1CC(CO)=C[C@@H]2c3cccc4[nH]cc(c34)C[C@H]21`
*A* 1.05

*Q* Indicate the recorded normalized growth value for this compound: CCCCCCC(C)OC(=O)COc1cc(Cl)c(Cl)cc1Cl (centres undefined)
*A* 0.99

*Q* Indicate the recorded normalized growth value for this compound: Oc1cc(O)c2c(c1)OC(c1cc(O)c(O)c(O)c1)C(O)C2c1c(O)cc(O)c2c1OC(c1cc(O)c(O)c(O)c1)C(O)C2c1c(O)cc(O)c2c1OC(c1cc(O)c(O)c(O)c1)C(O)C2 (centres undefined)
*A* 0.963

*Q* Indicate the recorded normalized growth value for this compound: CNCCC(Oc1ccc(C(F)(F)F)cc1)c1ccccc1 (centres undefined)
*A* 0.923
